B1: FEM1B (parent)
chain: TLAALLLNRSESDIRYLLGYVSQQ

# Variants of: B1
# method.notes: protein stability index of a GFP-peptide fusion (GPS, HEK-293T) (PSI 1-6); higher = more stable;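 further: lentivirally expressed fusions sorted by FACS into six bins by GFP to DsRed ratio, PSI derived from sequencing read proportions per bin multiplied by bin number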
# stated.conditions: c terminus: a fixed tail appended
Measured protein stability index values are reported for all entries that follow.

{"columns": ["var", "protein stability index"],
 "data": [
  ["Y16L", 2.01],
  ["V21E", 2.03],
  ["A4Q", 2.05],
  ["N8G", 2.04]
]}
